This section presents variants with their documented yeast fitness values.
B1: tRNA (parent)
chain: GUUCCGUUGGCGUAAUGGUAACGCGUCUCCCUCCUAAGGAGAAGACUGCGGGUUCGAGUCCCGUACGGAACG

# Variants of: B1
# test-description: yeast fitness relative to wild type (ratio to wild type); higher = fitter; tRNA-Arg(CCU), competitive growth, 37 C, YPD
Fewer inactive variants are shown than the library holds.
API doc: respond with a numeric literal and nothing else, no unit.

// solved cases for yeast fitness follow
{"columns": ["mutation-descriptor", "parameter-measured", "assay-value"],
 "data": [
  ["U7C G48A A69C", "yeast fitness", 0.695],
  ["C4G C29G A37U C49A G58C", "yeast fitness", 0.502]
]}

Task: // query yeast fitness value for entry C49G A70C
Result: 0.845

Task: # lookup: yeast fitness of G12C U28A
Result: 1.04

Task: Find the recorded yeast fitness belonging to G10C A14C G23U C31A C33G and report it.
Result: 0.512

Task: Fill blank: measured yeast fitness of the variant U8A U26A is ____.
Result: 0.733

Task: State the recorded yeast fitness for this entry: G18C U47A
Result: 0.553

Task: Any idea what yeast fitness was measured for C5A G58U ?
Result: 0.946
